Provenance of the data: PubChem BioAssay (NCI)

# System: SK-MEL-5 melanoma
# Assay comment: NCI-60 one-dose screen, 48 h
# Recorded conditions: 10 µM unless noted
Compounds without any hit were thinned out: in the full panel of roughly 83,000, 20% have a hit. Active and inactive are the calls of the source. Rule for the calls: active = growth percent below 10; inactive = the rest.
One label from this list, please: Yes = active, No = inactive

# lookup: test call for `Nc1nonc1-c1nc2ccccc2n1CC(=O)Nc1ccc2c(c1)COC2=O` No

# lookup: test call for `COc1ccc2c3c(c(OCCCN(C)C)nc2c1)-c1ccc(Cl)cc1C3=O` No

# lookup: test call for `N=C(N)/N=C(\CCc1nc2ccccc2[nH]1)c1nc2ccccc2[nH]1` No

# lookup: test call for `O=C1CC(C(F)(F)F)=NN1C(=O)c1nn(-c2ccc(Cl)cc2)cc1O` No

# lookup: test call for `c1ccc(Nc2nnc(-c3cc(-c4cccnc4)n(-c4ccccc4)n3)s2)cc1` No

# lookup: test call for CCOC(=O)C1=C(C)N2C(=NC3=C(CCC/C3=C\c3ccc(Cl)cc3)C2c2ccc(Cl)cc2)S1 (stereo not given) No

# lookup: test call for `COc1ccc(-c2cncn2-c2ccc(-c3nc4cc(OC)c(OC)c(OC)c4s3)cc2)cc1N` No

# lookup: test call for `CCCCCCCCCCCCCCCCCC1=NC(C)(C)CN1CCO` Yes

# lookup: test call for `COc1ccc2c(c1)C(=O)c1c-2c(OCCN(C)C)nc2cc(OC)ccc12` Yes

# lookup: test call for `O=C(/C=C/c1ccc(O)c(O)c1)N1CCN(c2ccc(Cl)cc2)CC1` No
